# Experiment summary: binders of probe aFSTL3 on microarray, primary screen, stem cell growth factor project, biochemical, small-molecule microarray, fluorescence 635/667 (AID 1064);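 also: measures binding of the biotinylated anti-FSTL3 antibody to printed compounds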
# Cond: higher = more signal
In this section we review reported composite z-score values for a set of compounds.

Compound	composite z-score
Cc1cc(C)c(C(O)C2C=CC3C(=O)N(c4ccccc4)C(=O)C3N2Nc2ccc(C#N)cc2)c(C)c1 (centres undefined)	0.624
CC(C)NC(=O)[C@@]1(Cc2ccccc2I)c2ccccc2C(=O)N(Cc2ccccc2)[C@H]1c1ccc(CO)cc1	0.0478
O=C1O[C@@H](c2ccccc2)[C@@H](c2ccccc2)N2[C@@H](c3ccc(OCCO)cc3)[C@]3(C(=O)Nc4ccc(C#CC5=CCCCC5)cc43)[C@@H](C(=O)O)[C@H]12	0.44
C=CCC(OC(C)=O)[C@@H]1[C@@H](N(Cc2ccc(-c3cccc(C(F)(F)F)c3)o2)C(=O)c2ccc(C)cc2)c2cc(OCCCO)ccc2N1C(=O)c1ccc(-c2ccccc2)cc1 (some centres undefined)	-0.322
COCCOC(=O)N1C(=O)[C@@]2(c3cc(C#CCNC(N)=O)ccc31)[C@H](c1ccc(O)cc1)N1[C@H](c3ccccc3)[C@H](c3ccccc3)OC(=O)[C@H]1[C@@H]2C(=O)Nc1nc2ccccc2s1	0.764
O=C1[C@]2(CO)C=C(Br)[C@@H](C[C@@H]2c2ccccc2)[C@@]12CO2	-0.333
COc1ccc(C#Cc2ccc3c(c2)[C@]2(C(=O)N3)[C@H](C(=O)NC[C@H](O)c3ccccc3)[C@H]3C(=O)O[C@H](c4ccccc4)[C@H](c4ccccc4)N3[C@@H]2c2ccc(OCCO)cc2)cc1	-0.547
COC(=O)[C@]1(Cc2ccccc2N=[N+]=[N-])N=C(c2ccc(OCCCO)cc2)O[C@@H]1c1ccccc1N=[N+]=[N-]	-0.13
COc1ccc([Si](C)(C)[C@@H]2[C@@H](CC(=O)N3CCC[C@H]3CO)O[C@]3(C(=O)N(C)c4c(Br)cc(C)cc43)[C@H]2C)cc1	-0.438
CN(C)CCCCNC(=O)[C@H]1C[C@H]2C(=O)N[C@@H](Cc3ccccc3)C(=O)N2[C@H]1c1ccc(O)cc1	-0.289
C=C(CCCC)/C(=C/C[C@H](OC(C)=O)c1ccc(CO)o1)c1cnc2ccccc2c1	-0.472
Cc1ccc(F)cc1S(=O)(=O)N[C@@H]1CCN(Cc2ccc(-c3ccccc3)cc2)C1	0.111
COC(=O)C[C@@H]1C[C@H](C)[C@]2(O1)C(=O)N(Cc1ccccc1)c1ccc(NC(C)=O)cc12	-0.589
C[C@]1(C(=O)NCc2ccccc2)c2ccccc2C(=O)N(Cc2ccc(OC(F)(F)F)cc2)[C@H]1c1ccc(CO)cc1	0.161

---

# Experiment summary: small-molecule microarray binders of probe aNog, primary screen, biochemical, biotinylated probe, 635/667 nm fluorescence (AID 1115);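 also: probe is biotinylated aNog protein used at 0.15 µg/mL for 1 h at 4 C; z-score combines 667 nm fluorescence of each spot with its signal to noise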
# Cond: higher = more signal
Record 1.0 whenever composite z-score is at 0.2 or higher; record 0.0 when lower.

Molecule	Class name
NCCCCCCNC(=O)[C@H]1C[C@H]2C(=O)NCC(=O)N2[C@H]1c1cccc(OCCO)c1	0.0
CC(C)c1ccc(NN2C(C(O)c3ccc(N(C)C)cc3)C=CC3C(=O)N(c4ccccc4)C(=O)C32)cc1 (configuration not stated)	1.0
COC(=O)C(CC#Cc1ccc2c(c1)[C@]1(C(=O)N2)[C@H](c2ccc(OCCO)cc2)N2[C@H](c3ccccc3)[C@H](c3ccccc3)OC(=O)[C@H]2[C@@H]1C(=O)NC[C@H](O)c1ccccc1)C(=O)OC	1.0
COCC(=C=CC[C@@H](O)c1ccc(CO)o1)CCO	0.0
O=C1C[C@]2(c3ccc([N+](=O)[O-])cc3)C(=O)N(CC(F)(F)F)c3cc(CO)ccc3[C@H]2N1CC12CC3CC(CC(C3)C1)C2	0.0
CN1CCC(CCCO)=CC1c1ccc(CN2CCCC2)cc1 (configuration not stated)	1.0
COC(=O)C[C@H]1O[C@]2(C(=O)N(Cc3ccccc3)c3ccc(NC(C)=O)cc32)[C@@H](C)[C@@H]1[Si](C)(C)c1ccc(OC)cc1	0.0

---

# Tgt: Neurogenic locus notch homolog protein 3 (Homo sapiens)
# Experiment summary: NOTCH3 binders on small-molecule microarray, primary screen, biochemical, 635/667 nm fluorescence (AID 1096)
# Cond: NOTCH3 binding, 635 nm fluorescence, higher = more signal
Listing: composite z-score of selected compounds
Assay readout: composite z-score

Structure as smiles	Recorded value
COc1ccccc1CN1C(=O)c2ccccc2[C@@H](C(=O)NCCN2CCOCC2)[C@@H]1c1ccc(CO)cc1	0.209
COCCCNC(=O)[C@@]1(CCC(=O)OC(C)(C)C)N=C(c2ccc(OCCCO)cc2)O[C@H]1c1ccccc1CN=[N+]=[N-]	1.06
CC(C)C[C@@H]1NC(=O)[C@H]2C[C@@H](C(=O)NCCCCCCNC(=O)CS)[C@@H](c3cccc(OCCO)c3)N2C1=O	1.04
O=C1O[C@@H](c2ccccc2)[C@@H](c2ccccc2)N2[C@@H](c3ccccc3OCCO)[C@]3(C(=O)Nc4ccc(C#CC5(O)CCCCCC5)cc43)[C@@H](C(=O)Nc3nc4ccccc4s3)[C@H]12	1.06
COc1ccc(C#Cc2ccc3c(c2)[C@]2(C(=O)N3)[C@H](C(=O)NC[C@H](O)c3ccccc3)[C@H]3C(=O)O[C@H](c4ccccc4)[C@H](c4ccccc4)N3[C@@H]2c2ccc(OCCO)cc2)cc1	1.09
COC(=O)[C@@]1(Cc2ccccc2N=[N+]=[N-])COC(c2ccc(OCCCO)cc2)=N1	0.0418

---

# Tgt: Torsin-1A-interacting protein 2 (Homo sapiens) (UniProt Q8NFQ8)
# Sequence (Q8NFQ8 whole entry, looked up): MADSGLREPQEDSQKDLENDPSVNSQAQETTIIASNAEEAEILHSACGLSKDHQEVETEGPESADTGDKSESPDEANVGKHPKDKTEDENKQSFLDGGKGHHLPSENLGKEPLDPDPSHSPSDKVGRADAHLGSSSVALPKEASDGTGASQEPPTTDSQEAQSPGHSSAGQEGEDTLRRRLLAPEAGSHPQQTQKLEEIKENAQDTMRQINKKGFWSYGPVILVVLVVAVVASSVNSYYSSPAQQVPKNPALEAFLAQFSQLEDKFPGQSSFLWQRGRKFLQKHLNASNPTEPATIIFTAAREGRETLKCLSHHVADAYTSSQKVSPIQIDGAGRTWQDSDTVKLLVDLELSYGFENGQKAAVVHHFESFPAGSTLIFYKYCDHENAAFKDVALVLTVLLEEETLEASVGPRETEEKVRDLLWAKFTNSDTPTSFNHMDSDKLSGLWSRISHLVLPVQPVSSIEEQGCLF
# Experiment summary: LULL1 binders on small-molecule microarray, primary screen, cell lysate, human LULL1 lysate, 635/667 nm fluorescence (AID 1092);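 also: probe is lysate of COS7 cells overexpressing human LULL1; score merges per-feature 667 nm fluorescence with signal-to-noise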
# Cond: hLULL1 lysate binding, 635 nm fluorescence, higher = more signal
Assay readout: composite z-score

In [3]: df
Out[3]:
                        structure_as_smiles      assay_readout  recorded_value
0  CCCN1C(=O)[C@@]2(CCC(=O)OC(C)(C)C)N=C(c3ccc(OCCCO)cc3)O[C@H]2c2ccccc21  composite z-score            2.64
1  CC(=CC1CCCCC1)[C@@H](NC(=O)c1ccc(C(F)(F)F)cc1)c1ccc(-c2ccccc2)cc1  composite z-score          -0.192
2  CCCC[C@H]1OB(O)C[C@H]2C1=C(C)C[C@H]1C(=O)N(Cc3ccccc3)C(=O)[C@H]12  composite z-score           0.342
3  O=C1O[C@H](c2ccccc2)[C@H](c2ccccc2)N2[C@H]1[C@@H](C(=O)O)[C@]1(C(=O)Nc3ccc(C#CC4=CCCCC4)cc31)[C@H]2c1ccc(OCCO)cc1  composite z-score            3.06

---

# Tgt: Torsin-1A-interacting protein 1 (Homo sapiens)
# Experiment summary: LAP1 binders from COS7 cell lysate, primary screen, small-molecule microarray, 635/667 nm fluorescence (AID 1116)
# Cond: COS7-hLAP1 lysate binding, 635 nm fluorescence, higher = more signal

Compound	composite z-score
CCCN1C(=O)[C@@]2(CCC(=O)OC(C)(C)C)N=C(c3ccc(OCCCO)cc3)O[C@H]2c2ccccc21	0.816
O=C1N(CCS(=O)(=O)c2ccccc2)Cc2ccccc2C[C@]12N=C(c1ccc(OCCCO)cc1)O[C@@H]2c1ccccc1	1.88
O=c1cccc(CCc2ccccc2)o1	-0.684
COCCOC(=O)N1C(=O)[C@@]2(c3cc(C#CCCO)ccc31)[C@H](c1ccc(O)cc1)N1[C@H](c3ccccc3)[C@H](c3ccccc3)OC(=O)[C@H]1[C@@H]2C(N)=O	0.393
CN(C)CCCCNC(=O)[C@H]1C[C@H]2C(=O)N[C@@H](Cc3ccccc3)C(=O)N2[C@H]1c1ccc(O)cc1	0.945
CCOC(=O)[C@H]1C[C@H]2O[C@@]23C[C@H]1C(=O)N1CCCC1[C@@H]3O[Si](C)(C)C(C)(C)C (stereo partly drawn)	-0.132
O=C(CS)NCCCCCCNC(=O)[C@@H]1C[C@@H]2C(=O)N3CCC[C@H]3C(=O)N2[C@@H]1c1ccc(O)cc1	1.35
COCCOC(=O)N1C(=O)[C@@]2(c3cc(C#CCC(C(=O)OC)C(=O)OC)ccc31)[C@H](C(=O)N1CCCCCCC1)[C@H]1C(=O)O[C@H](c3ccccc3)[C@H](c3ccccc3)N1[C@@H]2c1ccc(OCCO)cc1	4.31

---

# Tgt: Dihydroorotate dehydrogenase (quinone), mitochondrial (Plasmodium falciparum (isolate 3D7)) (UniProt Q08210)
# Sequence (Q08210 whole entry, looked up): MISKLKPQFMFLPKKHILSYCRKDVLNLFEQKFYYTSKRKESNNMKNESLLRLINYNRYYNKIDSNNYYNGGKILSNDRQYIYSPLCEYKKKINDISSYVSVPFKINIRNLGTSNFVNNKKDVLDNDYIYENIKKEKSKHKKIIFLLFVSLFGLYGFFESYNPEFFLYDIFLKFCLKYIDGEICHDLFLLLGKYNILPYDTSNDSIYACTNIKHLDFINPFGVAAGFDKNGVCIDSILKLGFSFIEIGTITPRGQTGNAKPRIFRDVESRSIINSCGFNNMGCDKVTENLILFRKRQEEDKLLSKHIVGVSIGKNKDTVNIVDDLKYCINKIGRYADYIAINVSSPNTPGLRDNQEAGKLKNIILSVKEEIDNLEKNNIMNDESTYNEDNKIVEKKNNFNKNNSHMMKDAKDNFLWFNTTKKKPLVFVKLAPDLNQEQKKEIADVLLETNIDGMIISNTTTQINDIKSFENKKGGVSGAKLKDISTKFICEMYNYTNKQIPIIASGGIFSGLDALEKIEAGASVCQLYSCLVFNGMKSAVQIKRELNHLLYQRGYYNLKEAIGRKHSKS
# Experiment summary: PfDHODH enzyme inhibitors, primary screen, biochemical, C-terminal His tag, absorbance 600 nm (AID 1175);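 also: recombinant parasite enzyme with a five histidine tag at its C terminus; test concentration not given here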
# Cond: DCIP absorbance 600 nm, called active from +8 up or from −8 down
Active and inactive are the calls of the source.
Labels: active, inactive

Compound	Class name
COC(=O)[C@@]1(Cc2ccc(OC)cc2)[C@H]2c3cc(C(=O)N(C)C)n(Cc4c(OC)[nH]cc(C)c4=O)c3C[C@H]2CN1C(=O)c1ccccc1	inactive
CCOC(=O)C1=CCC(C(C)(C)C)N(S(=O)(=O)c2ccc(C)cc2)C1 (configuration not stated)	inactive
C=CC[C@@]1(C(=O)NCC(O)CO)N=C(c2ccc(OCCCO)cc2)O[C@@H]1c1ccccc1N=[N+]=[N-] (some centres not stated)	inactive
COCCOC(=O)N1C(=O)[C@@]2(c3cc(C#CC4(O)CCCCCC4)ccc31)[C@H](C(=O)N1CCCCCCC1)[C@H]1C(=O)O[C@H](c3ccccc3)[C@H](c3ccccc3)N1[C@@H]2c1ccccc1OCCO	inactive
O=C1O[C@H](c2ccccc2)[C@H](c2ccccc2)N2[C@H]1[C@@H](C(=O)O)[C@]1(C(=O)Nc3ccc(C#CC4=CCCCC4)cc31)[C@H]2c1ccc(OCCO)cc1	active
C=C[C@@H](COC(C)=O)N(Cc1ccccc1[N+](=O)[O-])S(=O)(=O)c1ccc(Br)cc1	inactive
CCCNC(=O)[C@@]1(c2ccc([N+](=O)[O-])cc2)CC(=O)N(CC23CC4CC(CC(C4)C2)C3)[C@@H]1c1ccc(CO)cc1	inactive
